assayed_target: hMOR (Homo sapiens)
Sequence (P35372 whole entry): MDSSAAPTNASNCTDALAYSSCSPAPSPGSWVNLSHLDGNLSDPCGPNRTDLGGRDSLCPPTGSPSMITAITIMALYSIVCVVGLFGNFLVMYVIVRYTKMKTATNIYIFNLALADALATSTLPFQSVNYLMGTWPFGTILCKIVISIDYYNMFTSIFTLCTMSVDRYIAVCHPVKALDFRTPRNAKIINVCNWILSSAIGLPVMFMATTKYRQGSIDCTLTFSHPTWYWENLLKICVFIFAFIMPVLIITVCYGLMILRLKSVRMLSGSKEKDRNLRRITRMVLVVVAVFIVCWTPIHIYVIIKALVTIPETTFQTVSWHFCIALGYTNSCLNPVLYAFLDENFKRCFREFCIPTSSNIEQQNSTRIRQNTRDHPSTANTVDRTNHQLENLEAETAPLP
experimental_protocol: Radioligand binding assay (Eurofins Cerep), [3H]DAMGO displacement
particulars: Table B1; mean ± SEM, 3 independent experiments; read-out: MOR Ki ± SEM
pKi: −log10 of the molar value.
observable: pKi

Previously resolved entries follow.
compound="COC(=O)C=C1CCN2CCC(O)(c3ccccc3OC)CC2C1 (single isomer, unassigned) [SG-01-005A]" assayed_target="hMOR (Homo sapiens)" reported_result="< 5.00"
compound="COC(=O)C=C1CCN2CCC(O)(c3ccccc3OC)CC2C1 (stereo not drawn) [SG-01-005]" assayed_target="hMOR (Homo sapiens)" reported_result="< 5.00"
compound=C#CCCN1CCC(O)(c2ccccc2OC)CC1 assayed_target="hMOR (Homo sapiens)" reported_result="< 5.00"
compound="COC(=O)CC1CCN2CCC(O)(c3ccccc3OC)CC2C1 (stereo not drawn)" assayed_target="hMOR (Homo sapiens)" reported_result="< 5.00"
compound="COC(=O)CC1CCN2CCC(c3ccccc3OC)CC2C1 (stereo not drawn)" assayed_target="hMOR (Homo sapiens)" reported_result="< 5.00"

// next entry
Req: Record COC(=O)C=C1CCN2CCC(O)(c3ccccc3OC)CC2C1 (single isomer, unassigned) [SG-01-005B] : what is its pKi with hMOR (Homo sapiens)?
Resp: < 5.00

This collection of values is drawn from patent US20260234147A1.
